- test-summary: probe aLefty1 binding on compound microarray – biochemical, small-molecule microarray, 635/667 nm fluorescence, primary screen (AID 1153);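 note: score merges spot fluorescence with signal-to-noise ratio from the scanned slide images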
- condition-label: higher = more signal
// class assignment uses composite z-score with these ranges: low range (below -0.05), mid range (-0.05 to below 0.2), high range (0.2 or more)

>>> group_label("COc1ccc([C@H]2C[C@H]3C(I)=C[C@@H]2C(=O)[C@]32CO2)cc1")
"low range"
>>> group_label("CS(=O)(=O)CCOC(=O)C1=CC(CCCO)=CC(c2ccc(CN3CCCC3)cc2)N(Cc2cccc(OC(F)(F)F)c2)C=C1C(=O)OCCS(C)(=O)=O (stereo not given)")
"high range"
>>> group_label("CO[C@H]1O[C@H](CO)[C@@H](OC(=O)Nc2ccc(Br)cc2)[C@@H]2OC(=O)[C@H](Cc3cccc(Br)c3)C/C=C/C[C@@H](Cc3cccc(Br)c3)C(=O)O[C@@H]12")
"mid range"
>>> group_label("CN1C(=O)C2C=CC(C(O)C=Cc3ccc([N+](=O)[O-])cc3)N(Nc3ccccc3)C2C1=O (stereo not given)")
"low range"
>>> group_label("O=C1O[C@@H](c2ccccc2)[C@@H](c2ccccc2)N2[C@@H](c3ccc(OCCO)cc3)[C@]3(C(=O)Nc4ccc(C#CC5=CCCCC5)cc43)[C@@H](C(=O)N3CCCCCCC3)[C@H]12")
"high range"
>>> group_label("CN(C)C(=O)[C@]1(Cc2ccccc2)N=C(c2ccc(OCCCO)cc2)O[C@@H]1c1ccccc1N=[N+]=[N-]")
"mid range"
>>> group_label("COCCOC(=O)N1C(=O)[C@@]2(c3cc(C#CC4=CCCCC4)ccc31)[C@H](C(N)=O)[C@H]1C(=O)O[C@H](c3ccccc3)[C@H](c3ccccc3)N1[C@@H]2c1ccc(O)cc1")
"mid range"
>>> group_label("O=C(O)C1N=C(c2ccc(OCCCO)cc2)N(c2ccccc2)O1 (stereo not given)")
"mid range"
>>> group_label("O=C(CS)NCCCCCNC(=O)[C@H]1C[C@H]2C(=O)NCC(=O)N2[C@H]1c1cccc(OCCO)c1")
"low range"
>>> group_label("O=C1OCC=C[C@H]2OC34C=CCN(CCN5CCOCC5)C(=O)[C@H]3N(CCO)C(=O)[C@@H]4[C@@H]12 (stereo not given in full)")
"low range"
>>> group_label("CCC(CC)C(O)C1C=CC2C(=O)N(c3ccccc3)C(=O)C2N1Nc1ccccc1 (stereo not given)")
"high range"
>>> group_label("COC(=O)[C@]1(CCC(=O)OC(C)(C)C)N=C(c2ccc(OCCCO)cc2)O[C@@H]1c1ccccc1")
"high range"
>>> group_label("COCC(=C=CC[C@@H](O)c1ccc(OCCO)cc1)C[C@@H](O)c1ccccn1")
"mid range"
>>> group_label("CN1C(=O)C2C=CC(C(O)c3c(F)cccc3Cl)N(NC(=O)OC(C)(C)C)C2C1=O (stereo not given)")
"high range"
>>> group_label("C#CCN(C/C=C/c1ccccc1)[C@H](CO)c1ccccc1")
"low range"
>>> group_label("C[N+](C)(C)CCCCCCNC(=O)[C@H]1C[C@H]2C(=O)N[C@@H](Cc3ccccc3)C(=O)N2[C@H]1c1cccc(OCCO)c1")
"high range"
>>> group_label("COCCOC(=O)N1C(=O)[C@@]2(c3cc(C#CC4(O)CCCCCC4)ccc31)[C@H](C(=O)Nc1nc3ccccc3s1)[C@H]1C(=O)O[C@H](c3ccccc3)[C@H](c3ccccc3)N1[C@@H]2c1ccccc1OCCO")
"high range"
>>> group_label("CC(C)Cc1ccc(CN2CC[C@@H](N)C2)cc1")
"low range"
>>> group_label("O=C1[C@H]2C=C(Br)[C@H](C[C@@H]2OCCCCCCO)[C@@]12CO2")
"low range"
>>> group_label("CC(C)(C)OC(=O)CC[C@@]1(C(=O)N2CCCCC2)N=C(c2ccc(OCCCO)cc2)O[C@@H]1c1ccccc1")
"high range"
>>> group_label("COC(=O)c1c(CC[C@@H](CO)NC(=O)N[C@@H](Cc2ccccc2)Cn2cc(-c3ccccn3)nn2)oc(C(=O)N2CCOCC2)c1C(=O)OC")
"mid range"
>>> group_label("CCOc1cc(C(O)C2C=CC3C(=O)N(c4ccccc4)C(=O)C3N2Nc2ccc(C(C)C)cc2)ccc1O (stereo not given)")
"high range"
>>> group_label("C=CCC(OC(C)=O)[C@@H]1[C@@H](N(Cc2ccc(-c3ccccc3)cc2)C(=O)Cc2ccc(F)cc2)c2cc(OCCCO)ccc2N1C(=O)c1ccc2ccccc2c1 (stereo not given in full)")
"mid range"
>>> group_label("O=C1[C@H]2C=C(I)[C@H](C[C@@H]2OCCCCO)[C@@]12CO2")
"mid range"
>>> group_label("[N-]=[N+]=Nc1ccccc1C[C@]1(C(=O)NCC(O)CO)N=C(c2ccc(OCCCO)cc2)O[C@H]1c1ccccc1 (stereo not given in full)")
"mid range"
>>> group_label("CCCCCCc1nc(-c2ccc(-c3ccc(Cl)c(Cl)c3)o2)c(C)c2c1[Si](C(C)C)(C(C)C)OC2")
"low range"
>>> group_label("CC(CO)N1C(=O)[C@@H]2C3C(=O)OCCC/C=C\\[C@H]3OC23C=CCN(CCN2CCOCC2)C(=O)[C@@H]13 (stereo not given in full)")
"low range"
>>> group_label("COC(=O)[C@@]1(Cc2ccccc2)[C@H]2c3cc(C(=O)N4CCCC4)n(Cc4ccc(O)c(OC)c4)c3C[C@H]2CN1C(=O)c1ccccc1")
"mid range"
>>> group_label("COc1ccc(C(=O)Nc2cccc(CN3C(=O)[C@]4(O[C@H](CCn5cc(CCO)nn5)[C@@H]([Si](C)(C)c5ccc(OC)cc5)[C@@H]4C)c4ccccc43)c2)cc1")
"mid range"
